- assayed-system: T1, Axl (Homo sapiens, UniProt P30530)
- T1 sequence (P30530 26-451 limits assumed): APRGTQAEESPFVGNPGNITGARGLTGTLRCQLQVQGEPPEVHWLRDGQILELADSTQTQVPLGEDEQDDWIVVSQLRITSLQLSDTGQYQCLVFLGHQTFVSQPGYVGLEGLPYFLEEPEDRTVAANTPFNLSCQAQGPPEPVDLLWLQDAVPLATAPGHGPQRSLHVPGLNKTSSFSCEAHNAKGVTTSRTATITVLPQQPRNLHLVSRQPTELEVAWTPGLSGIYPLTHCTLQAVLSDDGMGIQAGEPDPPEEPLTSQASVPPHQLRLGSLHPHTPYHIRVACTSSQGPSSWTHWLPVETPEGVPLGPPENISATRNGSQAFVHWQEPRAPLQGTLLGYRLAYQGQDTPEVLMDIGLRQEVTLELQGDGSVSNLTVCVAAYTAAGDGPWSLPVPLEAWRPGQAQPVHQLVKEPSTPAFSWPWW
- test-summary: Affinity ELISA of CPE mutant antibodies for binding to Axl at pH 6.0 over pH 7.4
- test-conditions: heavy chain variable region mutants; 1:9 dilution
Recorded Affinity ELISA CPE mutant ratio (1:9, pH 6.0/7.4) by entry
Answer as a number with no unit attached.

Past entries and their recorded results:
INSERT INTO assay_data (molecule, reading) VALUES
  ('HC-W110R (antibody, V domains shown) VH: EVQLVQSGAEVKKPGATVKISCKVSGYSFTGHTMNWIRQPPGKGLEWIGLIKPSNGGTSYNQKFKGRVTISADKSISTAYLQWSSLKASDTAMYYCAHGHYESYFAMDYRGQGTLVTVSS VL: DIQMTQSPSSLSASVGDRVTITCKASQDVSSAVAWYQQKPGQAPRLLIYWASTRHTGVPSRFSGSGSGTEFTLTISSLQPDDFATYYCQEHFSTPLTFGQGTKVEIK', 1.062),
  ('HC-Y104P (antibody, V domains shown) VH: EVQLVQSGAEVKKPGATVKISCKVSGYSFTGHTMNWIRQPPGKGLEWIGLIKPSNGGTSYNQKFKGRVTISADKSISTAYLQWSSLKASDTAMYYCAHGHYESPFAMDYWGQGTLVTVSS VL: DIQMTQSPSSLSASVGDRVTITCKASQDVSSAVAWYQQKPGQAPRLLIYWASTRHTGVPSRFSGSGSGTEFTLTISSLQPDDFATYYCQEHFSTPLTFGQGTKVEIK', 2.416),
  ('HC-E102V (antibody, V domains shown) VH: EVQLVQSGAEVKKPGATVKISCKVSGYSFTGHTMNWIRQPPGKGLEWIGLIKPSNGGTSYNQKFKGRVTISADKSISTAYLQWSSLKASDTAMYYCAHGHYVSYFAMDYWGQGTLVTVSS VL: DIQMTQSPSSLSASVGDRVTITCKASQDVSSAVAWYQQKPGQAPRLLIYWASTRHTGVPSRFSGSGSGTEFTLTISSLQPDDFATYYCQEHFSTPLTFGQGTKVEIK', 2.507),
  ('HC-Y104C (antibody, V domains shown) VH: EVQLVQSGAEVKKPGATVKISCKVSGYSFTGHTMNWIRQPPGKGLEWIGLIKPSNGGTSYNQKFKGRVTISADKSISTAYLQWSSLKASDTAMYYCAHGHYESCFAMDYWGQGTLVTVSS VL: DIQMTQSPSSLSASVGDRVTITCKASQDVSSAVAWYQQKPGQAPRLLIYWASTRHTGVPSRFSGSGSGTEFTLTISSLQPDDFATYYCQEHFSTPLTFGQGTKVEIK', 1.741),
  ('HC-H100R (antibody, V domains shown) VH: EVQLVQSGAEVKKPGATVKISCKVSGYSFTGHTMNWIRQPPGKGLEWIGLIKPSNGGTSYNQKFKGRVTISADKSISTAYLQWSSLKASDTAMYYCAHGRYESYFAMDYWGQGTLVTVSS VL: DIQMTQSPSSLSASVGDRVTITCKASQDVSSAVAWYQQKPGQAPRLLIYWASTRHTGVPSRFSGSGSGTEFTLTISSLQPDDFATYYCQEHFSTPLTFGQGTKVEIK', 2.507);

Form field Affinity ELISA CPE mutant ratio (1:9, pH 6.0/7.4), entry HC-E102D (antibody, V domains shown) VH: EVQLVQSGAEVKKPGATVKISCKVSGYSFTGHTMNWIRQPPGKGLEWIGLIKPSNGGTSYNQKFKGRVTISADKSISTAYLQWSSLKASDTAMYYCAHGHYDSYFAMDYWGQGTLVTVSS VL: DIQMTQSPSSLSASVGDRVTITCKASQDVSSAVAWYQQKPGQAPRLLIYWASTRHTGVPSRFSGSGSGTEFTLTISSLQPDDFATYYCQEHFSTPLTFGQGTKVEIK : 2.853

Form field Affinity ELISA CPE mutant ratio (1:9, pH 6.0/7.4), entry HC-W110T (antibody, V domains shown) VH: EVQLVQSGAEVKKPGATVKISCKVSGYSFTGHTMNWIRQPPGKGLEWIGLIKPSNGGTSYNQKFKGRVTISADKSISTAYLQWSSLKASDTAMYYCAHGHYESYFAMDYTGQGTLVTVSS VL: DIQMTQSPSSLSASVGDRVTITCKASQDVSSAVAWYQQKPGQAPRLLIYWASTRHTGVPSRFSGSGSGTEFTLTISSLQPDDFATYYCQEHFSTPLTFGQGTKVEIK : 1.372

Form field Affinity ELISA CPE mutant ratio (1:9, pH 6.0/7.4), entry HC-E102H (antibody, V domains shown) VH: EVQLVQSGAEVKKPGATVKISCKVSGYSFTGHTMNWIRQPPGKGLEWIGLIKPSNGGTSYNQKFKGRVTISADKSISTAYLQWSSLKASDTAMYYCAHGHYHSYFAMDYWGQGTLVTVSS VL: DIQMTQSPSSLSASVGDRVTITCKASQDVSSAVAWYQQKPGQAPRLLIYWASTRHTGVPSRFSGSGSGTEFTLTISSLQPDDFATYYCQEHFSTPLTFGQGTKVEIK : 2.315

Form field Affinity ELISA CPE mutant ratio (1:9, pH 6.0/7.4), entry HC-E102A (antibody, V domains shown) VH: EVQLVQSGAEVKKPGATVKISCKVSGYSFTGHTMNWIRQPPGKGLEWIGLIKPSNGGTSYNQKFKGRVTISADKSISTAYLQWSSLKASDTAMYYCAHGHYASYFAMDYWGQGTLVTVSS VL: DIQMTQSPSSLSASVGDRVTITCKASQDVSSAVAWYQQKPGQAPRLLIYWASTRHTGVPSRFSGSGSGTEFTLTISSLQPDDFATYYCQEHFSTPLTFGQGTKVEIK : 1.687

Form field Affinity ELISA CPE mutant ratio (1:9, pH 6.0/7.4), entry HC-H100P (antibody, V domains shown) VH: EVQLVQSGAEVKKPGATVKISCKVSGYSFTGHTMNWIRQPPGKGLEWIGLIKPSNGGTSYNQKFKGRVTISADKSISTAYLQWSSLKASDTAMYYCAHGPYESYFAMDYWGQGTLVTVSS VL: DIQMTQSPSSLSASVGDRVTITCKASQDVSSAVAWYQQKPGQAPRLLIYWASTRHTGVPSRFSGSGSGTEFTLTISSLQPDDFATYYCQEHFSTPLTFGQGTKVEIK : 1.179
